Test system: AsPC-1 (K-Ras G12D)
Assay: CellTiter-Glo cell viability assay, AsPC-1
Assay type: cell-based
Details: Homo sapiens, ASPC1, 120 h, read-out: AsPC-1 Cell Viability IC50, AsPC-1, K-Ras G12D, 5-day treatment
Hi there, I'd appreciate the recorded IC50 for every entry that follows.

// IC50 value for CCn1c(-c2cc(N3CCN(C)CC3)cnc2[C@H](C)OC)c2c3cc(ccc31)-c1cc(O)cc(c1)C[C@H](NC(=O)[C@H](C1CCCC1)N(C)C(=O)CN(C)C(=O)[C@H]1CN1)C(=O)N1CCC[C@H](N1)C(=O)OCC(C)(C)C2 : < 10 nM

# IC50 of CCn1c(-c2cccnc2[C@H](C)OC)c2c3cc(ccc31)-c1cc(O)cc(c1)C[C@H](NC(=O)[C@H](C(C)C)N(C)C(=O)CN(C)C(=O)[C@H]1CN1CCCN1CCCC1=O)C(=O)N1CCC[C@H](N1)C(=O)OCC(C)(C)C2 (stereo partly shown) = 1000 to 10000 nM

Lab book: IC50 of CCn1c(-c2cccnc2[C@H](C)OC)c2c3cc(ccc31)-c1cc(O)cc(c1)C[C@H](NC(=O)[C@H](C(C)C)N(C)C(=O)CNC(=O)[C@H]1CN1)C(=O)N1CCC[C@H](N1)C(=O)OCC(C)(C)C2 noted as 1000 to 10000 nM

compound CCn1c(-c2cccnc2[C@H](C)OC)c2c3cc(ccc31)-c1cc(O)cc(c1)C[C@H](NC(=O)[C@H](C(C)C)N(C)C(=O)[C@H](C)N(C)C(=O)[C@H]1CN1)C(=O)N1CCC[C@H](N1)C(=O)OCC(C)(C)C2 , IC50 observed: 100 to 1000 nM

----------
Molecular target: KRAS G12S (Homo sapiens, UniProt P01116+P62937, G12S)
Sequence (P01116 1-169 isoform P01116-2 G12S limits assumed): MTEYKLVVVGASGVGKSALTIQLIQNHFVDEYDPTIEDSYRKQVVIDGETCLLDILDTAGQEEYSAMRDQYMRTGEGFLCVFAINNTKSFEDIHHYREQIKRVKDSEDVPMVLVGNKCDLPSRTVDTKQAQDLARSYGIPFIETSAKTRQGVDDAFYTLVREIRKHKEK
Sequence (P62937 whole entry): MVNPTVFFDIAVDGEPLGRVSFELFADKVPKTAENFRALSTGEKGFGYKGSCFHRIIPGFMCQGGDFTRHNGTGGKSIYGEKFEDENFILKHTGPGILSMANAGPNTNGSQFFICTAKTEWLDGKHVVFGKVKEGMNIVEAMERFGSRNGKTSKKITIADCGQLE
Assay: Ras-Raf disruption/FRET/MOA assay, KRAS G12S
Format: biochemical
Conditions: disruption of BRAF RBD binding, with Cyclophilin A; read-out: KRAS G12S FRET IC50
reported metric: IC50

Quick note, IC50 for CCn1c(-c2cccnc2[C@H](C)OC)c2c3cc(ccc31)-c1cc(O)cc(c1)C[C@H](NC(=O)[C@H](C(C)C)N(C)C(=O)N1CCN(C(=O)[C@@H]3CN3)CC1)C(=O)N1CCC[C@H](N1)C(=O)OCC(C)(C)C2 (atropisomer, axis not shown) landed at 10 to 100 nM

Record CCn1c(-c2cnccc2COC)c2c3cc(ccc31)-c1cc(O)cc(c1)C[C@H](NC(=O)[C@H](C(C)C)N(C)C(=O)CN(C)C(=O)[C@@H]1CN1C(=O)OC)C(=O)N1CCC[C@H](N1)C(=O)OCC(C)(C)C2 , field IC50: 10 to 100 nM

Measured IC50, CCn1c(-c2cccnc2[C@H](C)OC)c2c3cc(ccc31)-c1cc(O)cc(c1)C[C@H](NC(=O)[C@H](C(C)C)N1CC[C@@]3(CCCN(C(=O)[C@@H]4CN4)C3)C1=O)C(=O)N1CCC[C@H](N1)C(=O)OCC(C)(C)C2 : 10 to 100 nM

IC50 for CCn1c(-c2cnccc2COC)c2c3cc(ccc31)-c1cc(O)cc(c1)C[C@H](NC(=O)[C@H](C(C)C)N(C)C(=O)CN1C(=O)[C@@H]3[C@H](C1=O)N3Cc1ccccc1)C(=O)N1CCC[C@H](N1)C(=O)OCC(C)(C)C2 (some centres unmarked) is 100 to 1000 nM

Lab note: measured IC50 of CCn1c(-c2cnccc2COC)c2c3cc(ccc31)-c1cc(O)cc(c1)C[C@H](NC(=O)[C@H](C(C)C)N(C)C(=O)CN(C)C(=O)[C@H]1[C@@H](C3CC3)N1[S@+]([O-])C(C)(C)C)C(=O)N1CCC[C@H](N1)C(=O)OCC(C)(C)C2 (some centres unmarked) was 10 to 100 nM

For reference, reported IC50 for CCn1c(-c2cccnc2[C@H](C)OC)c2c3cc(ccc31)-c1csc(n1)C[C@H](NC(=O)[C@H](C1CCCC1)N1CC[C@]3(CCN(C(=O)[C@H]4CN4)C3)C1=O)C(=O)N1CCC[C@H](N1)C(=O)OCC(C)(C)C2 stands at 1000 to 10000 nM

IC50 reported for this compound CCn1c(-c2cccnc2[C@H](C)OC)c2c3cc(ccc31)-c1cc(cc(C(F)F)c1)C[C@H](NC(=O)[C@H](C1CCCC1)N1CC[C@]3(CCN(C(=O)[C@H]4CN4)C3)C1=O)C(=O)N1CCC[C@H](N1)C(=O)OCC(C)(C)C2 : 1000 to 10000 nM

The compound listed as CCn1c(-c2cnccc2COC)c2c3cc(ccc31)-c1cc(O)cc(c1)C[C@H](NC(=O)[C@H](C(C)C)N(C)C(=O)CN(C)C(=O)[C@@H]1[C@H](C(=O)OC)N1[S@@+]([O-])C(C)(C)C)C(=O)N1CCC[C@H](N1)C(=O)OCC(C)(C)C2 (some centres unmarked) has a reported IC50 of 10 to 100 nM

----------
Biological target: KRAS G12D (Homo sapiens, UniProt P01116+P62937, G12D)
Sequence (P01116 1-169 isoform P01116-2 G12D limits assumed, one chain of several): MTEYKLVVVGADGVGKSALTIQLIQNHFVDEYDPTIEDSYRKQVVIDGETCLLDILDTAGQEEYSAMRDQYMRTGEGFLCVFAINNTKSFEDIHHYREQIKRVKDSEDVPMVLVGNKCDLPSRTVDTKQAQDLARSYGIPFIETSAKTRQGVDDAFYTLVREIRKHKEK
Assay: Ras-Raf disruption/FRET/MOA assay, KRAS G12D
Type: biochemical
Source text: Disruption of B-Raf Ras-Binding Domain (BRAF^RBD) Interaction with K-Ras by Compounds of the Invention (Also Called a FRET Assay or an MOA Assay) Note—The following protocol describes a procedure for monitoring disruption of K-Ras G12C (GMP-PNP) binding to BRAF^RBD by a compound of the invention. This protocol may also be executed substituting other Ras proteins or nucleotides, such as K-Ras G12D and K-Ras G13D. […]
pIC50: −log10 of the molar value.
Consider the following compounds; for each one, report its pIC50.

With KRAS G12D (Homo sapiens, UniProt P01116+P62937, G12D) as the test system, CCn1c(-c2cnccc2COC)c2c3cc(ccc31)-c1cc(O)cc(c1)C[C@H](NC(=O)[C@H](C(C)C)N(C)C(=O)CN(C)C(=O)[C@@H]1N[C@@H]1c1ccccc1)C(=O)N1CCC[C@H](N1)C(=O)OCC(C)(C)C2 showed pIC50 of 6.00 to 7.00

Let me check: CCn1c(-c2cnccc2COC)c2c3cc(ccc31)-c1cc(O)cc(c1)C[C@H](NC(=O)[C@H](C(C)C)N(C)C(=O)CN(C)C(=O)C1CN1)C(=O)N1CCC[C@H](N1)C(=O)OCC(C)(C)C2 (stereo partly shown) , system KRAS G12D (Homo sapiens, UniProt P01116+P62937, G12D), measured pIC50 is 6.00 to 7.00

Form field, pIC50 with KRAS G12D (Homo sapiens, UniProt P01116+P62937, G12D), item CCn1c(-c2cnccc2COC)c2c3cc(ccc31)-c1cc(O)cc(c1)C[C@H](NC(=O)[C@H](C(C)C)N(C)C(=O)CN(C)C(=O)[C@H]1CN1)C(=O)N1CCC[C@H](N1)C(=O)OCC(C)(C)C2 : 6.00 to 7.00

Given the compound CCn1c(-c2cccnc2[C@H](C)OC)c2c3cc(ccc31)-c1cc(O)cc(c1)C[C@H](NC(=O)[C@H](C(C)C)N(C)C(=O)CN(C)C(=O)[C@H]1N[C@H]1C1CC1)C(=O)N1CCC[C@H](N1)C(=O)OCC(C)(C)C2 and test system KRAS G12D (Homo sapiens, UniProt P01116+P62937, G12D), the measured pIC50 is 6.00 to 7.00

Record for CCn1c(-c2cccnc2[C@H](C)OC)c2c3cc(ccc31)-c1cc(O)cc(c1)C[C@H](NC(=O)[C@H](C(C)C)N(C)C(=O)CN(C)C(=O)[C@@H]1CN1)C(=O)N1CCC[C@H](N1)C(=O)OCC(C)(C)C2 under target or system KRAS G12D (Homo sapiens, UniProt P01116+P62937, G12D): pIC50 reported as 7.00 to 8.00

Summary line: CCn1c(-c2cnccc2COC)c2c3cc(ccc31)-c1cc(O)cc(c1)C[C@H](NC(=O)[C@H](C(C)C)N(C)C(=O)CN(C)C(=O)[C@@H]1CN1Cc1ccccc1)C(=O)N1CCC[C@H](N1)C(=O)OCC(C)(C)C2 (stereo partly shown) , KRAS G12D (Homo sapiens, UniProt P01116+P62937, G12D), reported pIC50 = 5.00 to 6.00

Item CCn1c(-c2cnccc2COC)c2c3cc(ccc31)-c1cc(O)cc(c1)C[C@H](NC(=O)[C@H](C(C)C)N(C)C(=O)CN(C)C(=O)[C@H]1N[C@H]1c1ccccc1)C(=O)N1CCC[C@H](N1)C(=O)OCC(C)(C)C2 was tested on KRAS G12D (Homo sapiens, UniProt P01116+P62937, G12D); the reported pIC50 is 5.00 to 6.00

Kindly note: KRAS G12D (Homo sapiens, UniProt P01116+P62937, G12D), CCC(C)N(C)C(=O)c1cncc(-c2c3c4cc(ccc4n2CC)-c2cc(O)cc(c2)C[C@H](NC(=O)[C@H](C(C)C)N(C)C(=O)CN(C)C(=O)[C@H]2CN2)C(=O)N2CCC[C@H](N2)C(=O)OCC(C)(C)C3)c1 (stereo partly shown) , pIC50 value reported: 6.00 to 7.00

Record CCn1c(-c2cnccc2COC)c2c3cc(ccc31)-c1cc(O)cc(c1)C[C@H](NC(=O)[C@H](C(C)C)N(C)C(=O)CN(C)C(=O)[C@H]1CN1Cc1ccccc1)C(=O)N1CCC[C@H](N1)C(=O)OCC(C)(C)C2 (stereo partly shown) / KRAS G12D (Homo sapiens, UniProt P01116+P62937, G12D), pIC50 recorded as 5.00 to 6.00

Bench note, KRAS G12D (Homo sapiens, UniProt P01116+P62937, G12D): entry CCn1c(-c2cnccc2COC)c2c3cc(ccc31)-c1cc(O)cc(c1)C[C@H](NC(=O)[C@H](C(C)C)N(C)C(=O)CN(C)C(=O)[C@@H]1CN1)C(=O)N1CCC[C@H](N1)C(=O)OCC(C)(C)C2 , its pIC50 = 6.00 to 7.00
